Values from ChEMBL document CHEMBL1201862

# System: SN12C
# EXPERIMENT_DESCRIPTION: NCI tumour cell line growth inhibition, 48 h
Activity calls are given as the source filed them. No stated cut-off is given here; in the data, active = GI50 up to about 1.1 µM and inactive = higher.
// classify into active, inactive

Q. I'd appreciate the recorded outcome for CN(CCCCCl)P(=O)(OCC1=CC(=O)c2ccccc2C1=O)OC[C@H]1O[C@@H](n2cc(F)c(=O)[nH]c2=O)C[C@@H]1O (some centres not stated) from this test.
A. active

Q. Please answer likewise for CC(C)(C)c1cc(C2COC(c3cc(C(C)(C)C)c(O)c(C(C)(C)C)c3)CO2)cc(C(C)(C)C)c1O (configuration not stated)
A. inactive

Q. Please answer likewise for CCN(CC)CCC(=O)c1ccc(Sc2ccc(F)cc2)cc1
A. inactive

Q. Please answer likewise for C=C(C(=O)OC)c1cc2ccccc2n1S(=O)(=O)c1ccccc1
A. inactive

Q. Please answer likewise for COC(CN(C(C)=O)C1CCC2(SCCS2)c2[nH]c3ccccc3c21)OC (configuration not stated)
A. inactive

Q. Please answer likewise for CN(C(=O)c1ccc(OCCCC(=O)O)c(Cl)c1Cl)C1CCCC1
A. inactive

Q. Please answer likewise for CN1CC=C(c2cccn2C)CC1
A. inactive

Q. Please answer likewise for N/C(=N\O)N/N=C\c1cc([N+](=O)[O-])cc([N+](=O)[O-])c1O
A. inactive

Q. Please answer likewise for O=C(O)c1ccc(Nc2ccnc3cc(Cl)ccc23)cc1O
A. inactive

Q. Please answer likewise for O=C(NC(c1ccccc1)C(O)C(=O)OCc1ccc2c(c1)C(=O)c1ccccc1C2=O)c1ccccc1 (configuration not stated)
A. inactive

Q. Please answer likewise for CC(C)(C)C1=CC(=N/N=c2\scc(-c3ccccc3)n2-c2ccccc2)C=C(C(C)(C)C)C1=O
A. inactive

Q. Please answer likewise for O=C(CN1C(=O)c2ccccc2C1=O)NC1(C(=O)O)CCCC1
A. inactive

Q. Please answer likewise for Clc1ccc(-c2nc3cc(C45CC6CC(CC(C6)C4)C5)ccc3[nH]2)cc1
A. inactive

Q. Please answer likewise for C(=N\NC1=NCCCN1)/c1ccc(-c2cn3cc(/C=N/NC4=NCCCN4)ccc3n2)cc1
A. inactive

Q. Please answer likewise for Cc1cc(N(CCC#N)CCC#N)ccc1/C=N\c1ccc(C(=O)NN2C(=O)/C(=C/c3ccc(N(CCC#N)CCC#N)cc3)N=C2c2cc([N+](=O)[O-])ccc2Cl)cc1
A. inactive

Q. Please answer likewise for CC1=NN(C(=O)c2ccncc2)C(=O)C1/N=N/c1ccc2ccccc2c1 (configuration not stated)
A. inactive

Q. Please answer likewise for Cc1c(-c2ccc(O)cc2)n(CCCCCCNCCOC(=O)NCCCc2ccc(N(CCCl)CCCl)cc2)c2ccc(O)cc12
A. inactive

Q. Please answer likewise for COC(=O)c1c(C#N)[nH]c(-c2ccsc2)c1C(=O)OC
A. inactive

Q. Please answer likewise for Cc1nnc2sc(NN)nn12
A. inactive

Q. Please answer likewise for COc1ccc2[nH]c3c(C)c4ccnc(NCCCN(C)CCCNC(=O)NCCCN(C)CCCNc5nccc6c(C)c7[nH]c8ccc(OC)cc8c7c(C)c56)c4c(C)c3c2c1
A. active

Q. Please answer likewise for Cc1nc2c(n1C(C)(C)C)C(=O)c1ccccc1C2=O
A. inactive

Q. Please answer likewise for CC(C)(C)CC(C)(C)c1cc2c(O)c(c1)Cc1cc(C(C)(C)CC(C)(C)C)cc(c1O)Cc1cc(C(C)(C)CC(C)(C)C)cc(c1O)Cc1cc(C(C)(C)CC(C)(C)C)cc(c1O)Cc1cc(C(C)(C)CC(C)(C)C)cc(c1O)Cc1cc(C(C)(C)CC(C)(C)C)cc(c1O)Cc1cc(C(C)(C)CC(C)(C)C)cc(c1O)Cc1cc(C(C)(C)CC(C)(C)C)cc(c1O)C2
A. inactive

Q. Please answer likewise for C[n+]1c(-c2ccc(NC(=O)c3ccc(C(=O)Nc4ccc(-c5cn6ccccc6[n+]5C)cc4)cc3)cc2)cn2ccccc21
A. inactive

Q. Please answer likewise for O=C(O)CC(Cc1ccccc1)C(=O)O (configuration not stated)
A. inactive

Q. Please answer likewise for Clc1ccc(OCc2nnc(CCCCCCCCc3nnc(COc4ccc(Cl)cc4Cl)n3Nc3ccccc3)n2Nc2ccccc2)c(Cl)c1
A. inactive

Q. Please answer likewise for CSc1nc(-c2cc3c(c(SC)n2)CCC3)cc2c1CCC2
A. inactive

Q. Please answer likewise for COc1cccc2c1C(=O)c1c(O)c3c(c(O)c1C2=O)C[C@@](O)(/C(C)=N/NC(=O)c1ccc(Cl)c(Cl)c1)C[C@@H]3OC1CC(N)C(O)C(C)O1 (some centres not stated)
A. active

Q. Please answer likewise for Nc1ccc(-c2nc3ccccc3s2)cc1F
A. inactive

Q. Please answer likewise for O=C(CN1CCOCC1)c1ccc2c(c1)oc(=O)n2CCN1CCCC1
A. inactive

Q. Please answer likewise for CC1=C(C#N)C(N)=C2C(C)=C(C#N)C(N)=C12
A. inactive

Q. Please answer likewise for Cc1ccnc2nc(-c3cccc4ccccc34)cc(O)c12
A. active

Q. Please answer likewise for CC(C)CC1c2[nH]c3ccccc3c2C[C@H]2C(=O)NC(CCCCNC(=O)OC(C)(C)C)C(=O)N12 (some centres not stated)
A. inactive

Q. Please answer likewise for O=C(/C=C/c1ccc(Cl)cc1)c1nc2ccccc2[nH]1
A. inactive

Q. Please answer likewise for Cc1nc2c(=O)n(C)c(=O)nc-2n(CCO)c1C
A. inactive

Q. Please answer likewise for CCCc1cn2c(/C=N/NC(=N)N)c(-c3cc([N+](=O)[O-])c(Cl)cc3Cl)nc2s1
A. inactive

Q. Please answer likewise for CC(=O)/C(=C\I)c1ccccc1
A. inactive

Q. Please answer likewise for Cc1nc2ccc(Br)cc2c(=O)n1-c1nnc(C(C)(C)C)s1
A. inactive
